- EXPERIMENTAL SYSTEM: Rba. sphaeroides reaction centre (QB site) (Cereibacter sphaeroides, UniProt P0C0Y8)
- Construct: made in house; host or cells: Rba. sphaeroides strain DD13 carrying plasmid pvLMt (written pvLMtX)
- ASSAY PROTOCOL: Kinetics of charge recombination in photo-oxidised reaction centres in solution (absorbance at 865 nm)
- Format: biochemical, Rhodobacter sphaeroides
- DETAILS: 500 µM inhibitor; amplitude of τ1 component
QUANTITY MEASURED: A1 (%)
Report the value in % with no unit label.

// below: answered molecules
CCNc1nc(Cl)nc(NC(C)C)n1; 100
CCNc1nc(NC(C)(C)C)nc(SC)n1; 100

Request: Given the entry C/C=C(C)/C=C/C=C/[C@H](OC)[C@@H](C)[C@@H](OC)[C@@H](C)CCc1oc2c(O)c(OC)cc(OC)c2c(=O)c1C , what A1 was observed with Rba. sphaeroides reaction centre (QB site) (Cereibacter sphaeroides, UniProt P0C0Y8)?
Result: 100

Request: Given the entry N#Cc1cc(Br)c(O)c(Br)c1 , what A1 was observed with Rba. sphaeroides reaction centre (QB site) (Cereibacter sphaeroides, UniProt P0C0Y8)?
Result: 36.1

Request: Given the entry CC(C)N1C(=O)c2ccccc2NS1(=O)=O , what A1 was observed with Rba. sphaeroides reaction centre (QB site) (Cereibacter sphaeroides, UniProt P0C0Y8)?
Result: 39.0

Request: Given the entry COc1cc(CNC(=O)CCCC/C=C/C(C)C)ccc1O , what A1 was observed with Rba. sphaeroides reaction centre (QB site) (Cereibacter sphaeroides, UniProt P0C0Y8)?
Result: 41.0

Request: Given the entry CN(C)C(=O)Nc1ccc(Cl)c(Cl)c1 , what A1 was observed with Rba. sphaeroides reaction centre (QB site) (Cereibacter sphaeroides, UniProt P0C0Y8)?
Result: 51.7
